Below, each of the compounds is paired with its reported EC50 value.
# study-system: human S1P1 receptor (Homo sapiens, UniProt P21453)
# Construct: membranes used
# Sequence (P21453 whole entry): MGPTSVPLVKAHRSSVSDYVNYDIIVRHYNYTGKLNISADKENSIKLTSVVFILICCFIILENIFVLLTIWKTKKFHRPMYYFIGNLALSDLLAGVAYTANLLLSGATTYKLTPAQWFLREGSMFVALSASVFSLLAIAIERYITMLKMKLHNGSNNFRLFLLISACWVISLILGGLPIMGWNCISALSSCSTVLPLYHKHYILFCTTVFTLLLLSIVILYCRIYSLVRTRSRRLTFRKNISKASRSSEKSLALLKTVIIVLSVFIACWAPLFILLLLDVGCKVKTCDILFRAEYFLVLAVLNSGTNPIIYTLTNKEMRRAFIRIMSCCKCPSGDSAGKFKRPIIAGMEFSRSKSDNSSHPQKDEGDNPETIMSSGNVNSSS
# test-method-notes: GTP γ35S binding assay for S1P1 activity
# condition-details: membranes of cells stably expressing the S1P1 receptor, agonist potency
Express the result in nM but write the number alone.

[
  {
    "compound": "Cc1ccc(-c2nnc(SC(C)c3ccc(CNCCC(=O)O)cc3)o2)cc1C (centres unmarked) [Compound 3]",
    "measured-parameter": "EC50",
    "display-unit": "nM",
    "val": 8.4
  }
]

Moving on to the next compound.
Report EC50 for Cc1ccc(-c2nnc(SC(C)c3ccc(CNCCCP(=O)(O)O)cc3)o2)cc1C (centres unmarked) [Compound 1] please.
82
